Each item that follows carries a reported % Residual enzymatic activity at 1 µM FLT3-ITD.
Test system: FLT3-ITD
protocol-text: ADP Glo Kinase assay
Type: biochemical
applied-conditions: 1 µM compound
The figure you give is taken to be in %; do not add the unit.

| item-smiles | test-value |
| --- | --- |
| Nc1ncnc(Oc2ccc(NC(=O)c3cccn(-c4ccc(F)cc4)c3=O)cc2)c1F | 79 |
| Nc1ncnc(Oc2ccc(NC(=O)c3cccn(-c4ccc(F)cc4)c3=O)cc2)c1Cl | 33 |
| Nc1ncnc(Oc2ccc(NC(=O)c3cccn(-c4ccc(C(F)(F)F)cc4)c3=O)cc2F)c1F | 88 |
| Nc1ncnc(Oc2ccc(NC(=O)c3cccn(-c4ccc(F)cc4)c3=O)c(F)c2F)c1Cl | 74 |

Form field: reported % Residual enzymatic activity at 1 µM FLT3-ITD of Nc1ncnc(Oc2ccc(NC(=O)c3cccn(-c4ccc(F)cc4)c3=O)c(F)c2)c1F
40

Form field: reported % Residual enzymatic activity at 1 µM FLT3-ITD of Nc1ncnc(Oc2ccc(NC(=O)c3cccn(-c4ccc(F)cc4)c3=O)cc2Cl)c1F
43

Form field: reported % Residual enzymatic activity at 1 µM FLT3-ITD of Nc1ncnc(Oc2ccc(NC(=O)c3cccn(-c4ccc(F)cc4)c3=O)c(F)c2)c1Cl
43

Form field: reported % Residual enzymatic activity at 1 µM FLT3-ITD of Nc1ncnc(Oc2cc(F)c(NC(=O)c3cccn(-c4ccc(F)cc4)c3=O)cc2F)c1Cl
22

Form field: reported % Residual enzymatic activity at 1 µM FLT3-ITD of Nc1ncnc(Oc2ccc(NC(=O)c3cccn(-c4ccc(F)cc4)c3=O)cc2F)c1F
50

Form field: reported % Residual enzymatic activity at 1 µM FLT3-ITD of Nc1ncnc(Oc2ccc(NC(=O)c3cccn(-c4ccc(OC(F)(F)F)cc4)c3=O)cc2F)c1F
91
